testSystem: UniProtKB P47936
Sequence (P47936 whole entry): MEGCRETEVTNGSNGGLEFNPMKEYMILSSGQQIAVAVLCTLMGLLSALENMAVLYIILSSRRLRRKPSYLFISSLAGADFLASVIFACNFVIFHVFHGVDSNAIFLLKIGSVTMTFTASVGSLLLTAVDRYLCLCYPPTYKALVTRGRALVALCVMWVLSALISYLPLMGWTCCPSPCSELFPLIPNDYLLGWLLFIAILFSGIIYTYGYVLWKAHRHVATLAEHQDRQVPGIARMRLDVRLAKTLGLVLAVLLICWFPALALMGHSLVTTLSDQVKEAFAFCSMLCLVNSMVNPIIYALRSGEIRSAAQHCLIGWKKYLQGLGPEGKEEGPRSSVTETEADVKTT
methodNotes: [3H]CP55,940 binding, cannabinoid CB2 receptor, CB2-CHO cell membranes
conditionDetails: read-out: Ki (nM) CB2; CB2-CHO cell membranes, 1 nM [3H]CP55,940; mean ± S.E.M.

>  <compound>
CCS(=O)(=O)NCCCCC(C)(C)c1cc(O)c2c(c1)OC(C)(C)C1CC=C(C)CC21 (stereo not shown)

>  <unitAbbreviation>
nM

>  <Ki>
0.08

$$$$
>  <compound>
CCCCS(=O)(=O)NCCCC#CCc1cc(O)c2c(c1)OC(C)(C)C1CC=C(C)CC21 (stereo not shown)

>  <unitAbbreviation>
nM

>  <Ki>
86

$$$$
>  <compound>
CCS(=O)(=O)NCCCC#CCc1cc(O)c2c(c1)OC(C)(C)[C@@H]1CC=C(C)C[C@@H]21

>  <unitAbbreviation>
nM

>  <Ki>
1.4

$$$$
>  <compound>
CC1=CC[C@@H]2[C@@H](C1)c1c(O)cc(CC#CCCCNS(C)(=O)=O)cc1OC2(C)C

>  <unitAbbreviation>
nM

>  <Ki>
0.2

$$$$
